Values were extracted from ChEMBL document CHEMBL1141202.

Molecular target: Beta-1 adrenergic receptor (Homo sapiens, UniProt P08588)
Sequence (P08588 whole entry): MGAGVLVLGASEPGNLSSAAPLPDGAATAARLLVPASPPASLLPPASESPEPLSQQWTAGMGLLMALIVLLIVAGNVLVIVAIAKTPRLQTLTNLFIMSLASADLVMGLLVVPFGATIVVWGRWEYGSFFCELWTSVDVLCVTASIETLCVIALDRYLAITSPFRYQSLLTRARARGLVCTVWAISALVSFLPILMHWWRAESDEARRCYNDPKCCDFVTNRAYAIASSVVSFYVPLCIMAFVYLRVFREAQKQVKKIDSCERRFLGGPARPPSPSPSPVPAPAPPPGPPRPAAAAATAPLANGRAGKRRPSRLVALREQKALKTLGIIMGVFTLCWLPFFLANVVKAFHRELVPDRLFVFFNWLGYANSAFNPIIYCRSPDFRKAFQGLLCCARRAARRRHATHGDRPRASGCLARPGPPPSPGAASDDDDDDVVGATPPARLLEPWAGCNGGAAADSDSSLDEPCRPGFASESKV
READOUT_LABEL: IC50

Query: Quick one: give measured IC50 for CC(=O)Nc1cc(Cl)ccc1/C=C/C(=O)N1CCN(Cc2ccc(F)cc2)C[C@H]1C
Response: > 1000 nM

###

Biological target: C-C chemokine receptor type 1 (Homo sapiens, UniProt P32246)
Sequence (P32246 whole entry): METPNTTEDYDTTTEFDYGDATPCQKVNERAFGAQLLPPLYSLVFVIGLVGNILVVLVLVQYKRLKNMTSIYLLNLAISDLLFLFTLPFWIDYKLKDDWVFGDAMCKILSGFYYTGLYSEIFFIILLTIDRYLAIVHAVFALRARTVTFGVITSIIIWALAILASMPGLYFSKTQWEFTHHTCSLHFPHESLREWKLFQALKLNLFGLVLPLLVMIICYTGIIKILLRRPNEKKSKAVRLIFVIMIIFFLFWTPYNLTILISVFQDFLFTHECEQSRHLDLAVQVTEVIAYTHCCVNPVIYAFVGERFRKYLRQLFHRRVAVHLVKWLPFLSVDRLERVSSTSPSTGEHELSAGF
Experiment: Antagonistic activity at human CCR1 in CHO-K1 cells
Assay type: functional, cell-based
What IC50 was measured for each of the following?
Answers are plain numbers, in nM.

MOLECULE: CC(=O)Nc1cc2ncccc2cc1/C=C/C(=O)N1C2CCC1CN(Cc1ccc(F)cc1)C2
IC50, nM: 150

Each of the following entries comes with a recorded value; kindly state IC50 for each.
1. CC(=O)Nc1cc(Cl)ccc1/C=C/C(=O)N1C2CCC1CN(Cc1ccc(F)cc1)C2
2. CC(=O)Nc1cc(Cl)ccc1/C=C/C(=O)N1C[C@H]2C[C@@H]1CN2Cc1ccc(F)cc1
3. CC(=O)Nc1cc2ccccc2cc1/C=C/C(=O)N1CCN(Cc2ccc(F)cc2)C[C@H]1C
4. CN(C)CC(=O)Nc1cc(Cl)ccc1/C=C/C(=O)N1C2CCC1CN(Cc1ccc(F)cc1)C2
5. CC(=O)Nc1cc(Cl)ccc1/C=C/C(=O)N1CCCN(Cc2ccc(F)cc2)C[C@H]1C

Response:
1: 200; 2: 1700; 3: 80; 4: 30; 5: 1600
